# Assay system: hiNOS (Homo sapiens)
# Test summary: DAN assay, hiNOS expressed in transiently transfected HEK293 cells
# Reported conditions: HEK293 cells transiently transfected with hiNOS
Where a name gives a salt, the structure may show the parent alone.
Measured quantity: EC50

> print(dat)
                                    compound  observed.value
 1                 CN(CCCN)c1nc(-n2ccnc2)ns1         > 50 µM
 2  Cc1cc(CNS(=O)(=O)NCCc2ccc3c(c2)OCO3)nc(-n2ccnc2)n1         < 50 µM
 3  CCOC(=O)CN(CCCN(C)Cc1ccc2c(c1)OCO2)c1nc(-n2ccnc2)ns1          < 1 µM
 4  CNC(=O)C1CCC(C(=O)NCCc2ccc3c(c2)OCO3)N1c1nc(-n2ccnc2)ns1 (stereo not shown)         < 50 µM
 5  CC(C)[C@@H](Nc1nc(-n2ccnc2)ns1)C(=O)NCCc1ccc2c(c1)OCO2          < 1 µM
 6  CNC(=O)CC(NCCNCc1ccc2c(c1)OCO2)c1cc(C)nc(-n2ccnc2)n1 (stereo not shown) [Example 136, trifluoroacetate]          < 1 µM
 7  CN(CCCN(Cc1ccc(O)cc1)Cc1ccc(O)cc1)c1nc(-n2ccnc2)ns1          < 1 µM
 8  CNC(=O)C(CCCNCc1ccc2c(c1)OCO2)c1nc(-n2ccnc2)ns1 (stereo not shown)          < 1 µM
 9  c1cn(-c2nsc(N(CCCNCc3ccc4c(c3)OCO4)Cc3nccs3)n2)cn1          < 1 µM
10  CCCN(CCCNCc1ccc2c(c1)OCO2)c1nc(-n2ccnc2)ns1          < 1 µM
11  Cc1cc(CNC(=O)NCCc2ccc3c(c2)OCO3)nc(-n2ccnc2)n1          < 1 µM
12  CN(CCc1ccc2c(c1)OCCO2)CCN(C)c1nc(-n2ccnc2)ns1          < 1 µM
13  CN(CCCNCc1ccc(C(F)(F)F)cc1)c1nc(-n2ccnc2)ns1         > 50 µM
14  O=C(NCCc1ccc2c(c1)OCO2)[C@@H]1CCCN1c1nc(-n2ccnc2)ns1         > 50 µM
15  c1cn(-c2nsc(N(CCCNCc3ccc4c(c3)OCO4)Cc3nnn[nH]3)n2)cn1          < 1 µM
16  Cc1cc(CNC(=O)C2CCCN2Cc2ccccn2)nc(-n2ccnc2)n1 (stereo not shown)         > 50 µM
17  CN(CCCN(C)c1nc(-n2ccnc2)ns1)Cc1ccc2c(c1)OCCO2          < 1 µM
18  CNNC(=N)CN(CCCNCc1ccc2c(c1)OCO2)c1nc(-n2ccnc2)ns1          < 1 µM
19  Cc1cc(C(C)(C)NCCNCc2ccc3c(c2)OCO3)nc(-n2ccnc2)n1 [Example 77, hydrochloride]          < 1 µM
20  Cc1cc(CNC(=O)C2CCCN2Cc2ccc(F)c(F)c2)nc(-n2ccnc2)n1 (stereo not shown)         > 50 µM
21  Oc1ccc(CN(CCCNCc2ccc3c(c2)OCO3)c2nc(-n3ccnc3)ns2)cc1          < 1 µM
22  CN(CCN1CCCC1c1nc(-n2ccnc2)ns1)Cc1ccc2c(c1)OCO2 (stereo not shown)          < 1 µM
23  CN(CCCNCc1ccc2c(c1)OCO2)c1nc(-n2ccnc2)ns1          < 1 µM
24  Cn1cnc(CN(CCCNCc2ccc3c(c2)OCO3)c2nc(-n3ccnc3)ns2)c1          < 1 µM
25  Cc1cc(C(C)NCCN(C)Cc2ccc3c(c2)OCO3)nc(-n2ccnc2)n1 (single isomer, unassigned) [Example 131]          < 1 µM
26  CN(CC(=O)NCCc1ccc2c(c1)OCO2)c1nc(-n2ccnc2)ns1          < 1 µM
27  NC(=O)C1CCC(C(=O)NCCc2ccc3c(c2)OCO3)N1c1nc(-n2ccnc2)ns1 (stereo not shown)          < 1 µM
28  Cc1cc(C2C(c3nccs3)CCN2CCNCc2ccc3c(c2)OCO3)nc(-n2ccnc2)n1 (stereo not shown)          < 1 µM
29  CN(CCc1ccc2c(c1)OCO2)CCN(C)c1nc(-n2ccnc2)ns1          < 1 µM
30  CCOC(=O)CC(NCCNCc1ccc2c(c1)OCO2)c1cc(C)nc(-n2ccnc2)n1 (stereo not shown) [Example 135, trifluoroacetate]          < 1 µM
31  O=C(NCCc1ccc2c(c1)OCCO2)[C@H]1CCCN1c1nc(-n2ccnc2)ns1          < 1 µM
32  CSc1ccc(CN(CCCNCc2ccc3c(c2)OCO3)c2nc(-n3ccnc3)ns2)cc1          < 1 µM
33  Cc1cc(C2CCCN2CCN(C)Cc2ccc3c(c2)OCCO3)nc(-n2ccnc2)n1 (stereo not shown)          < 1 µM
34  CN(CCCNCc1ccc2[nH]ccc2c1)c1nc(-n2ccnc2)ns1         > 50 µM

Source of measurements: patent US7825256B2
